# tested.system: hNET (Homo sapiens, UniProt P23975)
# Construct: expressed in transfected cells
# Sequence (P23975 whole entry): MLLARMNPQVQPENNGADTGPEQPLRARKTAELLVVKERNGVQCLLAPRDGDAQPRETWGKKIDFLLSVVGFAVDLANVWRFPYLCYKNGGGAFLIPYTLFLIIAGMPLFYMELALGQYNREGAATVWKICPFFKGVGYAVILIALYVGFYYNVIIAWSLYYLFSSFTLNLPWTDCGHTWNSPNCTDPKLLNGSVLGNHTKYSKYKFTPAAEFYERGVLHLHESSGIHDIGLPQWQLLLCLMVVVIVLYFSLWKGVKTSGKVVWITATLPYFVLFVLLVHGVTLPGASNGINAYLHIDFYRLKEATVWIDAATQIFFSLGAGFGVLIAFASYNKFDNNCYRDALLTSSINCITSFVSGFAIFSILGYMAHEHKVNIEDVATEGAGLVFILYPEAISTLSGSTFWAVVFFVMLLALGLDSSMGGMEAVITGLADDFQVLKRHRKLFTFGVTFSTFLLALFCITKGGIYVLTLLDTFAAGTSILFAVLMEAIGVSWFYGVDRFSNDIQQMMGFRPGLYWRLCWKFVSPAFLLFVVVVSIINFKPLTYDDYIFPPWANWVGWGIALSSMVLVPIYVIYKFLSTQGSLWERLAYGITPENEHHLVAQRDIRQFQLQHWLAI
# test.method.notes: Norepinephrine (NE) uptake assay in MDCK-Net6 cells stably transfected with human hNET
# Assay type: cell-based
# details: test compound 1 μM; [3H]NE uptake, MDCK-Net6 cells; read-out: % Inhibition @ 1 μM (hNET)
Where a name gives a salt, the structure may show the parent alone.
measurement.name: inhibition at 1 µM (%)
# output: bare number, implied unit %

Take a look at these entries with their results.
compound	measurement.name	scale.unit	experimental.value
CNC[C@@H](O)[C@H](c1ccccc1)N1C(=O)C2(CCCCC2)c2cccc(F)c21 [Example 112, hydrochloride]	inhibition at 1 µM	%	100
CNC[C@@H](O)[C@H](c1ccccc1)n1ccc2ccncc21 [Example 84, dihydrochloride]	inhibition at 1 µM	%	40.9
CNC[C@@H](O)[C@H](c1ccccc1)N1C(=O)C(C)(C)c2cccc(F)c21 [Example 99, hydrochloride]	inhibition at 1 µM	%	98.1
CNC[C@@H](O)[C@H](c1ccccc1)N1CCc2cc(Cl)ccc21 [Example 87, hydrochloride]	inhibition at 1 µM	%	99.7
CNC[C@@H](O)[C@H](c1ccccc1)n1ccc2c(OC)cccc21 [Example 78, hydrochloride]	inhibition at 1 µM	%	70.9

# input Need inhibition at 1 µM, item CNC[C@H](O)[C@@H](c1ccccc1OC(F)(F)F)n1ccc2ccccc21 [Example 37, hydrochloride]
# output 21.4

# input Need inhibition at 1 µM, item CNC[C@@H](O)[C@H](c1ccccc1)n1ccc2cccc(Cl)c21 [Example 148, hydrochloride]
# output 97.8

# input Need inhibition at 1 µM, item "CNC[C@@H](OC)[C@H](c1ccccc1)n1cc(C)c2cc(Cl)ccc21"
# output 21.2

====

# tested.system: hNET (Homo sapiens)
# Construct: expressed in transfected cells
# test.method.notes: Norepinephrine (NE) uptake assay in MDCK-Net6 cells stably transfected with human hNET
# Type: cell-based
# details: test compound 1 μM; [3H]NE uptake, MDCK-Net6 cells; read-out: % Inhibition @ 1 μM (hNET)
Structures can show the parent of a compound that is named as a salt.
Entries annotated with measured inhibition at 1 µM
# output: bare number, implied unit %

Take a look at these entries with their results.
compound	scale.unit	experimental.value
CNC[C@@H](O)[C@H](c1ccccc1)n1ccc2cccc(C)c21 [Example 91, hydrochloride]	%	90.8
O[C@H](CN1CCOCC1)[C@H](c1cccc(F)c1)n1ccc2ccccc21 [Example 56, hydrochloride]	%	12.3
O[C@@H](CN1CCOCC1)[C@@H](c1ccccc1)n1ccc2ccccc21 (racemic) [Example 3, hydrochloride]	%	17.6
CNC[C@@H](O)[C@H](c1cccc(F)c1)n1cc(-c2cccc(F)c2F)c2ccccc21 [Example 211, hydrochloride]	%	99.8
O[C@@H](CNCc1ccncc1)[C@@H](c1ccccc1)n1ccc2ccccc21 (racemic) [Example 14, hydrochloride]	%	24.4
CNC[C@@H](O)[C@H](c1ccccc1)N1C(=O)C2(CC2)c2ccccc21 [Example 109, hydrochloride]	%	94.7

# input Need inhibition at 1 µM, item CNC[C@@H](O)[C@H](c1ccccc1)N1CCc2cccc(C)c21 [Example 66, hydrochloride]
# output 86.6

====

Entries annotated with measured inhibition at 1 µM
# tested.system: hNET (Homo sapiens)
# Construct: expressed in transfected cells
# test.method.notes: Norepinephrine (NE) uptake assay in MDCK-Net6 cells stably transfected with human hNET
# Format: cell-based
# details: test compound 1 μM; [3H]NE uptake, MDCK-Net6 cells; read-out: % Inhibition @ 1 μM (hNET)
Structures can show the parent of a compound that is named as a salt.
# output: bare number, implied unit %

compound	scale.unit	inhibition at 1 µM
CNC[C@@H](O)[C@H](c1cccc(F)c1)n1cc(-c2cccc(C)c2)c2ccccc21 [Example 48, hydrochloride]	%	96.6
CNC[C@@H](O)[C@H](c1cccc(F)c1)n1cc(C(C)(C)C)c2ccccc21	%	99.3
CNC[C@@H](O)[C@H](c1cccc(F)c1)n1cc(-c2ccc(C(C)(C)C)cc2)c2ccccc21 [Example 171, hydrochloride]	%	98.3
O[C@H]([C@@H]1CCCN1)[C@H](c1cccc(F)c1)n1ccc2ccccc21 [Example 106, hydrochloride]	%	85.8
NC[C@H](O)[C@@H](c1ccccc1)n1ccc2cc(F)ccc21 (racemic) [Example 19, hydrochloride]	%	31.6

# input Provide the documented inhibition at 1 µM with hNET (Homo sapiens) as the system for CNC[C@@H](O)[C@H](c1ccccc1)n1cc(C)c2cc(F)ccc21 [Example 117, hydrochloride]
# output 95.3

# input Provide the documented inhibition at 1 µM with hNET (Homo sapiens) as the system for CNC[C@@H](O)[C@H](c1ccccc1)n1cc(C)c2cccc(F)c21 [Example 179, hydrochloride]
# output 99.8

# input Provide the documented inhibition at 1 µM with hNET (Homo sapiens) as the system for NCC[C@@H](O)[C@H](c1cccc(F)c1)n1ccc2ccccc21 [Example 159, hydrochloride]
# output 93.8

# input Provide the documented inhibition at 1 µM with hNET (Homo sapiens) as the system for CNC[C@@H](O)[C@H](c1ccccc1)n1cnc2ccccc21 (racemic) [Example 72, hydrochloride]
# output 24

# input Provide the documented inhibition at 1 µM with hNET (Homo sapiens) as the system for CNC[C@@H](O)[C@H](c1ccccc1)N1C(=O)C2(CCCCC2)c2ccccc21 [Example 104, hydrochloride]
# output 99.4

# input Provide the documented inhibition at 1 µM with hNET (Homo sapiens) as the system for CNC[C@@H](O)[C@H](c1cccc(F)c1)n1cc(-c2ccccc2Cl)c2ccccc21 [Example 214, hydrochloride]
# output 99.9

# input Provide the documented inhibition at 1 µM with hNET (Homo sapiens) as the system for CNC[C@@H](O)[C@H](c1cccc(OC(F)(F)F)c1)n1ccc2ccccc21 [Example 35, hydrochloride]
# output 94.3

# input Provide the documented inhibition at 1 µM with hNET (Homo sapiens) as the system for CNC[C@H](O)[C@@H](c1ccc(OC(F)(F)F)cc1)n1ccc2ccccc21 (single isomer, unassigned) [Example 41, hydrochloride]
# output 32.4

# input Provide the documented inhibition at 1 µM with hNET (Homo sapiens) as the system for CNC[C@@H](O)[C@H](c1ccccc1)n1c(C)cc2ccccc21 (racemic) [Example 71, hydrochloride]
# output 44.9

# input Provide the documented inhibition at 1 µM with hNET (Homo sapiens) as the system for CNC[C@@H](O)[C@H](c1ccccc1)n1ccc2cccc(F)c21 [Example 181, hydrochloride]
# output 96.9

====

# tested.system: hNET (Homo sapiens, UniProt P23975)
# Construct: expressed in transfected cells
# test.method.notes: Norepinephrine (NE) uptake assay in MDCK-Net6 cells stably transfected with human hNET
# Format: cell-based
# details: test compound 1 μM; [3H]NE uptake, MDCK-Net6 cells; read-out: % Inhibition @ 1 μM (hNET)
Where a name gives a salt, the structure may show the parent alone.
Label y for high-side inhibition at 1 µM (at or above 70%) and n for low-side inhibition at 1 µM (below it).

Look over these answered cases.
molecule	answer.label
CNC[C@@H](O)[C@H](c1ccc(OC)cc1)n1ccc2ccccc21 (racemic) [Example 70, hydrochloride]	y
NCC[C@@H](O)[C@H](c1cccc(Cl)c1)n1ccc2ccccc21 [Example 42, hydrochloride]	y
CNC[C@@H](O)[C@H](c1cccc(F)c1)N1C(=O)C(C)(C)c2cccc(F)c21 [Example 101, hydrochloride]	y

# input API: above_or_equal(metric=inhibition at 1 µM, cutoff=70%) for item CN1CCN(C[C@H](O)[C@@H](c2ccccc2)n2ccc3ccccc32)CC1 [Example 1, dihydrochloride]
# output n

# input API: above_or_equal(metric=inhibition at 1 µM, cutoff=70%) for item CNC[C@@H](O)[C@H](c1ccccc1)N1C(=O)C2(CCCC2)c2ccccc21 [Example 108, hydrochloride]
# output y

# input API: above_or_equal(metric=inhibition at 1 µM, cutoff=70%) for item CNC[C@@H](OC)[C@H](c1ccccc1)n1cc(C)c2cc(F)ccc21 [Example 123, hydrochloride]
# output n

# input API: above_or_equal(metric=inhibition at 1 µM, cutoff=70%) for item CNC[C@@H](O)[C@H](c1cccc(F)c1)n1ccc2ccc(OC)cc21 [Example 81, hydrochloride]
# output n

# input API: above_or_equal(metric=inhibition at 1 µM, cutoff=70%) for item CNC[C@@H](O)[C@H](c1cccc(F)c1)n1cc(-c2ccc(C)cc2)c2ccccc21 [Example 170, hydrochloride]
# output y

# input API: above_or_equal(metric=inhibition at 1 µM, cutoff=70%) for item CNC[C@@H](O)[C@H](c1ccccc1)N1C(=O)C(C)(C)c2cc(Br)ccc21 [Example 194, hydrochloride]
# output y

# input API: above_or_equal(metric=inhibition at 1 µM, cutoff=70%) for item CNC[C@@H](O)[C@H](c1ccccc1)n1ccc2c(Br)cccc21 [Example 124, hydrochloride]
# output y

# input API: above_or_equal(metric=inhibition at 1 µM, cutoff=70%) for item CNC[C@@H](O)[C@H](c1ccccc1)n1ccc2ccc(OC)cc21 [Example 79, hydrochloride]
# output n

# input API: above_or_equal(metric=inhibition at 1 µM, cutoff=70%) for item CNC[C@@H](O)[C@H](c1ccccc1)n1ccc2cc(C)ccc21 [Example 95, hydrochloride]
# output y

# input API: above_or_equal(metric=inhibition at 1 µM, cutoff=70%) for item CNC[C@@H](O)[C@H](c1ccccc1)n1cc(C)c2cccc(Cl)c21 [Example 122, hydrochloride]
# output y

# input API: above_or_equal(metric=inhibition at 1 µM, cutoff=70%) for item CNC[C@@H](O)[C@H](c1ccccc1)n1c(C)nc2ccccc21 (racemic) [Example 73, hydrochloride]
# output n

# input API: above_or_equal(metric=inhibition at 1 µM, cutoff=70%) for item CNC[C@@H](O)[C@H](c1ccc(F)c(F)c1)n1ccc2ccccc21 [Example 140, hydrochloride]
# output y

Origin of values: patent US20090093469A1
